Target: Zinc finger protein mex-5 (Caenorhabditis elegans)
Sequence (Q9XUB2 whole entry): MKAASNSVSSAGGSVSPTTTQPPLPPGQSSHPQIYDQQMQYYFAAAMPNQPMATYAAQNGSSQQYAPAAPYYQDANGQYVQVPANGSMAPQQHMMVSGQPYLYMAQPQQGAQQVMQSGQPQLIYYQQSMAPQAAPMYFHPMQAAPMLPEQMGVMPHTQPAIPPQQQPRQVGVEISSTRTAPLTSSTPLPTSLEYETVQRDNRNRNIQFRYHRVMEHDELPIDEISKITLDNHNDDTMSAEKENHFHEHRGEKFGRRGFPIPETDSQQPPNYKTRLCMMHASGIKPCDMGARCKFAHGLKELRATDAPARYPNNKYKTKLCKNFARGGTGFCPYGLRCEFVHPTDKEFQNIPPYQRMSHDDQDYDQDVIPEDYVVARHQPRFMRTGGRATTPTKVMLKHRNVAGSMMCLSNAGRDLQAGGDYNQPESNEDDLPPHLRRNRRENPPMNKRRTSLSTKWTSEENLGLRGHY
Test: MEX-5/TCR-2 RNA interaction inhibitors, dose response, biochemical, C. elegans, fluorescence polarization (AID 1960)
Activity calls are given as the source filed them.
Exercise: for every item that follows, state its recorded EC50.

query: Param item = N#CC1=C(N)OC2=C(C(=O)CCC2)C1c1ccc(OC(=O)N2CCOCC2)cc1 (stereo unspecified) ; retrieve measured EC50.
result: > 300 µM (not active)

query: Which value of EC50 has been reported for "S=c1[nH]c2ccccc2n2c(=S)[nH]nc12" in the records?
result: 6.1 µM (active)

query: Which EC50 value belongs to "O=C1NC(=O)N(CCc2ccc(F)cc2)C(=O)/C1=C/NCCCn1ccnc1" ?
result: > 300 µM (not active)

query: May I ask what EC50 has been recorded for FC(F)(F)c1ccc2c(c1)C1C=CCC1C(c1ccncc1)N2 (stereo unspecified) ?
result: > 300 µM (not active)

query: Requested read-out: EC50. Entry: "Cc1cccn2c(=O)c3cc(C#N)/c(=N\C(=O)c4cccs4)n(CCCOC(C)C)c3nc12"
result: > 300 µM (not active)

query: What value of EC50 has been recorded for this entry: Cc1cc2nc3ccc(N(C)C)cc3[s+]c2cc1N [TOLONIUM CHLORIDE]
result: 35.6 µM (active)

query: Can you look up the measured EC50 of "C/C(=N\NC(=O)c1nnn(-c2nonc2N)c1-c1cccs1)c1cccc(O)c1" for me?
result: > 300 µM (not active)

query: Given the entry "COc1cccc(OCCCn2cc(/C=C3/C(=N)N4C=C(C)SC4=NC3=O)c3ccccc32)c1" , report its measured EC50.
result: 109 µM (active)

query: Given "O=[N+]([O-])c1cccc(/C=C/c2nc(/C=N/c3ccccc3)c(O)o2)c1" , state its recorded EC50.
result: 39.4 µM (active)

query: Which EC50 reading was recorded for the compound "CC(C)(C)c1ccc(/C=C2\Oc3cc(O)ccc3C2=O)cc1" ?
result: 28.8 µM (active)

query: State the recorded EC50 for this entry: "COC(=O)c1cccc(-n2c(CCC(=O)O)ccc2-c2cccs2)c1"
result: > 300 µM (not active)

====

Biological target: ATP-dependent molecular chaperone HSP82 (Candida albicans (strain WO-1) (Yeast))
Sequence (C4YTQ8 whole entry): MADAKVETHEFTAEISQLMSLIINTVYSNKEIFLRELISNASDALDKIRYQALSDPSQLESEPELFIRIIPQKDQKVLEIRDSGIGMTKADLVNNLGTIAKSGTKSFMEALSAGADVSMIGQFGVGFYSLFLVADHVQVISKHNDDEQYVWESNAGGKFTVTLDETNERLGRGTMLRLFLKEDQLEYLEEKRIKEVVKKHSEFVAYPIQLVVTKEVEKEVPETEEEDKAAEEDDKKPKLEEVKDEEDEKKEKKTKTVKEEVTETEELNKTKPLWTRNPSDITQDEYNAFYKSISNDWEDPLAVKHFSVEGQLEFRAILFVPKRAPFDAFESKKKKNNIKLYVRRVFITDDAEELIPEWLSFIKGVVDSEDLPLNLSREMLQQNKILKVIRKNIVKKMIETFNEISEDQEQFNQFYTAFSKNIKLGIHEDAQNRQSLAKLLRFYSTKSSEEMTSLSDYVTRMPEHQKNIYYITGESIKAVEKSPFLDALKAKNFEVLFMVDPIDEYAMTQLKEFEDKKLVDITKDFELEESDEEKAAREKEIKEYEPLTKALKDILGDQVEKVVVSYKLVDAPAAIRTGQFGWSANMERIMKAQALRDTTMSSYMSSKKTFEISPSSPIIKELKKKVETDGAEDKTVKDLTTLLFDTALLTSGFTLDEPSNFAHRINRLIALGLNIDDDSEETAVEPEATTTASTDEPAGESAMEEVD
Assay: loss of DOC-induced GRE-beta-galactosidase reporter signal, dose response, Hsp90 inhibitor project, S. cerevisiae, luminescence (AID 2400);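 note: beta-galactosidase luminescence from glucocorticoid response element reporter as proxy for Hsp90 function; inhibitor potency where signal loss means Hsp90 inhibition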
Format: functional, cell-based
Active and inactive are the calls of the source.
Permitted responses: active, inactive

query: What call does the record list for "CC(C)N1CCc2c(sc(NC(=O)c3nc4ccccc4s3)c2C(N)=O)C1" ?
result: active

query: # outcome recorded in this test, key = "O=C(Nc1nc(-c2ccccn2)cs1)c1ccc(Br)s1"
result: active

query: Outcome? "O=C(NNC1=C(C(=O)C(F)(F)F)CCC1)c1cccc(Cl)c1"
result: active

query: Outcome? "[O-][n+]1cccc2c(Br)cc(Br)c(O)c21"
result: inactive

====

Biological target: Protein Wnt-3a (Mus musculus, UniProt P27467)
Sequence (P27467 whole entry): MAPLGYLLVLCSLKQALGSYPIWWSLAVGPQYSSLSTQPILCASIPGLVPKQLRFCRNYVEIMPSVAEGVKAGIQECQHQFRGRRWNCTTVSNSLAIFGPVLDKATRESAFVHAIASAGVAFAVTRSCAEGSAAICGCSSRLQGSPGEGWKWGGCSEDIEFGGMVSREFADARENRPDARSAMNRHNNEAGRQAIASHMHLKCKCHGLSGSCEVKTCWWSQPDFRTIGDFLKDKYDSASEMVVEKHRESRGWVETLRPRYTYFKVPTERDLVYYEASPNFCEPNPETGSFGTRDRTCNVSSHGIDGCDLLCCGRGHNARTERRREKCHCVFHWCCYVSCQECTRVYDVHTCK
Test: Wnt3a-driven reporter signaling inhibition, dose response, selectivity assay for Gli-SUFU antagonist project, Wnt-LIGHT cells, luminescence (AID 651570);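 note: Wnt-LIGHT reporter cells stimulated with conditioned medium from Wnt3a-producing cells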
Type: functional
Conditions: read-out: IC50_Mean
The source made the active and inactive calls.
REPORTED_PROPERTY: IC50

query: Form field: reported IC50 of "CN1/C(=C\C=N\NC(=O)c2ccc(O)cc2)C(C)(C)c2ccccc21"
result: 15.4 µM (active)

query: # lookup: IC50 of Cc1nc2ccccc2n1CC(=O)NC(C)C1CC2CCC1C2 (stereo not given)
result: 4.3 µM (active)

query: Which IC50 value belongs to NC(=O)CC(NC(=O)c1ccccc1)c1ccc(N2CCCCCC2)c([N+](=O)[O-])c1 (stereo not given) ?
result: 19.9 µM (active)

query: I'd like to know its IC50. The molecule in question is CC(C)CCOC(=O)C[N+](C)(C)CCOC1CC2CCC1(C)C2(C)C (stereo not given)
result: 5.09 µM (active)

query: Looking for the measured IC50 of "Cc1ccc(-c2c[n+](Cc3ccc(Cl)c(Cl)c3)c3n2CCC3)cc1" , can you help?
result: 24.5 µM (inactive)

====

Answer each item with its documented EC50.
Test: C. albicans growth with fluconazole, confirmation, fluorescence, retest (AID 2467)
Type: functional, cell-based
Where a name gives a salt, the structure may show the parent alone. Activity calls are given as the source filed them.

query: Can you share its EC50? I mean this compound: "CCOC(=O)c1ccc(NC(=O)Cn2ncc(Cl)c(Cl)c2=O)cc1"
result: 582 nM (active)

query: Given the compound "c1csc(CNc2ncnc3sccc23)c1" , what is its reported EC50?
result: 3280 nM (active)

query: # get_value(readout='EC50', item= CC(=O)[C@]1(O)Cc2c(O)c3c(c(O)c2[C@@H](O[C@H]2C[C@H](N)[C@H](O)[C@H](C)O2)C1)C(=O)c1ccccc1C3=O [IDARUBICIN HYDROCHLORIDE] )
result: > 38000 nM (not active)

query: For the compound shown here, "CCCOc1cccc(-c2cc(C(=O)NN=C(S)NCC)c3ccccc3n2)c1" , give the reported EC50.
result: > 38000 nM (not active)

query: For "CC(C)(C)c1ccc(C(=O)NC(=S)NNC(=O)COc2ccccc2)cc1" , what is its reported EC50?
result: 1580 nM (active)

query: Data request, read-out EC50, for "O=C(Nc1nc(-c2ccccn2)cs1)c1ccc(Br)s1"
result: 1810 nM (active)

====

Biological target: UniProt:Q9GZR1
Sequence (Q9GZR1 whole entry): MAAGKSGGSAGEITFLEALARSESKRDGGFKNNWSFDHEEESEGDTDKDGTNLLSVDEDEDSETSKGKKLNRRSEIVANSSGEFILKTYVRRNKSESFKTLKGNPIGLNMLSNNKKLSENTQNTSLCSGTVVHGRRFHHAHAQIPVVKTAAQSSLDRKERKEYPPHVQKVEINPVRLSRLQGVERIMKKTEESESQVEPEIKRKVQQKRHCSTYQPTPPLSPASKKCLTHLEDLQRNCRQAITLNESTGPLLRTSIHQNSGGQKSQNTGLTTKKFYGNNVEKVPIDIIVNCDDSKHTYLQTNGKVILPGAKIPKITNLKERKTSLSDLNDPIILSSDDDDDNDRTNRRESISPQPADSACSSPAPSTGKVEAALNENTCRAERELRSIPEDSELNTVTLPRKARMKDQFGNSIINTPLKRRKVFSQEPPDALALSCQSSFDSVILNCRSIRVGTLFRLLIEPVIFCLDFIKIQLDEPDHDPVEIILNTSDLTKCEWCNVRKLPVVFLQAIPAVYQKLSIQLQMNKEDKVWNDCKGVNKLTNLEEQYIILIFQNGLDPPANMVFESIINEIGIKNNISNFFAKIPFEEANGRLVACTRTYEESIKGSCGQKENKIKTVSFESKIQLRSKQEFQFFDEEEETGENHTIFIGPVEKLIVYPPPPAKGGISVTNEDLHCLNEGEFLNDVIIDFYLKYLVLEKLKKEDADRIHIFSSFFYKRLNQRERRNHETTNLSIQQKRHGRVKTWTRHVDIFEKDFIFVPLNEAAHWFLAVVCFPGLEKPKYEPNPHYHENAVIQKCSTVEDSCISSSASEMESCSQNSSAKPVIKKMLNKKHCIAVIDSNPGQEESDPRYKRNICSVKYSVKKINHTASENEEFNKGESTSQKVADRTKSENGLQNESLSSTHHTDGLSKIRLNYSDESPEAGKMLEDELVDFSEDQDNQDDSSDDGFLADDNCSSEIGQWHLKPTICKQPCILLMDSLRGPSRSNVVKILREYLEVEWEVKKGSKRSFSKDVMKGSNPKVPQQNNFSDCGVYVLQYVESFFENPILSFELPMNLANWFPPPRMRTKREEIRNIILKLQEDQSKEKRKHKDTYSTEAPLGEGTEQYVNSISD
Type: functional
Calls of active or inactive are those of the source.
Output constraint: value belongs to active, inactive

query: Hi, sorry to bother you, what did the test record for "COc1ccc(-c2noc(Cc3cccs3)n2)cc1" ?
result: active

query: What outcome does the record of this test show for "O=C(N/N=C/C(Cl)=C\c1ccccc1)c1cccs1" ?
result: inactive

query: Could you check what this test reported for "CCCOc1cc2c(C#N)c(N3CCCC3)nc(N)c2c(N)n1" ?
result: active

query: Answer briefly: the call reported for "c1ccc(CCNc2ncnc3c2cnn3-c2ccccc2)cc1" in this assay.
result: active

query: For this compound, state the assay outcome: "O=C(O)c1ccc(COc2ccccc2[N+](=O)[O-])o1"
result: active

====

Experiment: HeLa cell cytotoxicity, dose response, cytotoxicity control for MgcRacGAP inhibitor project (AID 624300)
Format: functional
Activity calls are given as the source filed them.
Would you mind telling me the reported CC50 of each entry?

query: What value of CC50 has been recorded for this entry: "Nc1ccc2[nH]c(-c3ccccc3)nc2c1"
result: 100 µM (active)

query: Which CC50 is reported for this compound? "CN1/C(=C\C=N\NC(=O)c2ccc(O)cc2)C(C)(C)c2ccccc21"
result: 100 µM (active)

query: Consider the compound shown here: "Cn1c(-c2cccc([N+](=O)[O-])c2)cnc1NCc1cccc([N+](=O)[O-])c1" What is its recorded CC50?
result: 100 µM (active)

query: Could you share which CC50 value was measured for "Cc1ccc(C(=N)NOC(=O)N2c3ccccc3Sc3ccccc32)cc1" ?
result: 96.4 µM (active)

====

Molecular target: Heat shock factor protein 1 (Mus musculus)
Sequence (P38532 whole entry): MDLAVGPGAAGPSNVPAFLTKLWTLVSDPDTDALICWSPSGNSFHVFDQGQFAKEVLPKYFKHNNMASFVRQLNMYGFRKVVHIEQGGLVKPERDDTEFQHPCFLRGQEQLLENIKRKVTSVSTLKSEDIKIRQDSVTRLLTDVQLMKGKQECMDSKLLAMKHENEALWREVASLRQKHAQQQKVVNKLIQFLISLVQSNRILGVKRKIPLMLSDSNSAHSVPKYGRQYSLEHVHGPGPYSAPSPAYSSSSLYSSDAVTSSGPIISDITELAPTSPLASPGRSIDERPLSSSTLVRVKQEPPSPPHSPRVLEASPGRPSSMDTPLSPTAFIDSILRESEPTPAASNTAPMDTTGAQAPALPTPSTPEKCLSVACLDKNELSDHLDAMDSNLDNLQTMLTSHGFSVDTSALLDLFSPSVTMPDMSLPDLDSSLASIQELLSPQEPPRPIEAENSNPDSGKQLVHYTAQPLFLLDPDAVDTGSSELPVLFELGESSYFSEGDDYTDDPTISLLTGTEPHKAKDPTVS
Experiment: HSF1 potentiators in luciferase reporter cells, confirmation, cell-based, NIH3T3, luminescence, dose retest (AID 435004);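 note: stress induced by proteasome inhibitor MG132 added 30 min after compound; luciferase reporter driven by HSF1 response element in NIH3T3 cells; actives raise luminescence as potentiators of the MG132 stress response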
Format: functional
Active and inactive are the calls of the source.
Provide the reported EC50 of each item.

query: Return reported EC50; argument: O=C(CCCn1c(=S)[nH]c2ccc(Br)cc2c1=O)NCC1CCCO1 (stereo not given)
result: > 260 µM (inactive)

query: Could you tell me which EC50 is on file for "CCCCN=C(S)NNC(=O)c1csc2ccccc12" ?
result: > 260 µM (inactive)

query: Recorded EC50 of "COC(=O)/C=C1/N=C(Nc2nc(C)cc(C)n2)N(c2ccc(C)c(C)c2)C1=O" , please.
result: > 260 µM (inactive)

query: For the molecule "COc1ccc(NC(=O)c2sccc2SCc2cccc(C(F)(F)F)c2)cc1" , what EC50 is on record?
result: > 260 µM (inactive)

query: Quick check: EC50 of Cc1cc2nc3ccc(N(C)C)cc3[s+]c2cc1N [TOLONIUM CHLORIDE] ?
result: > 260 µM (inactive)

====

Target: Induced myeloid leukemia cell differentiation protein Mcl-1 (Homo sapiens)
Sequence (Q07820 whole entry): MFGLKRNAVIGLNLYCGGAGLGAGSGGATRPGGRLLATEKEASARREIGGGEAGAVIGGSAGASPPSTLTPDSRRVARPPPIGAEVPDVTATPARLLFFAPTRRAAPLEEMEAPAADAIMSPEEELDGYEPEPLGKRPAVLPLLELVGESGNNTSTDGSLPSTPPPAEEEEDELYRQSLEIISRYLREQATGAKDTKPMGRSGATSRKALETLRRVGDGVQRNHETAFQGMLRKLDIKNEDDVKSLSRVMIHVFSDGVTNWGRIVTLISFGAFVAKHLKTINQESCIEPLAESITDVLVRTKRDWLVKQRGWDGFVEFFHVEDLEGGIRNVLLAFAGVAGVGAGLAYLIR
Format: functional
Calls of active or inactive are those of the source.
I'd be grateful if you could share measured IC50 for these entries.

query: IC50 lookup needed for "COc1ccc(-c2cc3nc4ccccc4n3c(N)c2C#N)cc1" , thanks.
result: 2520 nM (active)

query: Item under review: "Cc1ccc(-c2ccc(/C=C3/NC(=O)NC3=O)o2)cc1[N+](=O)[O-]" . Reported IC50?
result: 4360 nM (active)

query: Value lookup for IC50; key = O=C(O)c1cccc2c1NC(C(=O)O)C1CC(Sc3ccccc3[N+](=O)[O-])C(Cl)C21 (stereo not drawn)
result: 2170 nM (active)

query: # get_value(readout='IC50', item= "COCC/N=c1\scc(-c2ccco2)n1/N=C/c1ccc(O)c(O)c1O" )
result: 1600 nM (active)

query: What does the data say about its IC50? Entry: CN(C)c1ccc(C(CNC(=O)c2ccccc2Br)c2c[nH]c3ccccc23)cc1 (stereo not drawn)
result: 2820 nM (not active)

query: // returns reported IC50 for input CC(C(=O)NC1CCCC1)N(Cc1ccco1)C(=O)c1snc(C(=O)NC2CCCC2)c1N (stereo not drawn)
result: 8770 nM (not active)

query: Recorded IC50 for COc1ccc(N2CCC(CNC(=O)Nc3ccc(OC)cc3OC)C2)cc1 (stereo not drawn) , please?
result: 1140 nM (active)

query: IC50 lookup needed for "COc1ccc(NC(=O)Cc2c(SC)c3ccccc3n2Cc2ccccc2)cc1" , thanks.
result: 6180 nM (not active)
